Values from patent US20210230570

molecular target: plasma purified human antithrombin III (AT-III) in complex with full-length unfractionated heparin (UFH)
value kind: K0.5-mut/K0.5-wt (fold)
Form entry: value (fold) — number only.

Per the record, FIXa D104N/K106S/I251S/R318Y/R338E/E410N (protein) chain 1: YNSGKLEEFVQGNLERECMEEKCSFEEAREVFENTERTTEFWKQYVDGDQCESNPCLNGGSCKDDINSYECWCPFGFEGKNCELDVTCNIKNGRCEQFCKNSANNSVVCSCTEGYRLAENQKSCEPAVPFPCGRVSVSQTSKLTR chain 2: VVGGEDAKPGQFPWQVVLNGKVDAFCGGSIVNEKWIVTAAHCVETGVKITVVAGEHNIEETEHTEQKRNVSRIIPHHNYNAAINKYNHDIALLELDEPLVLNSYVTPICIADKEYTNIFLKFGSGYVSGWGRVFHKGYSALVLQYLRVPLVDRATCLESTKFTIYNNMFCAGFHEGGRDSCQGDSGGPHVTEVEGTSFLTGIISWGEECAMKGKYGIYTKVSRYVNWIKNKTKLT has K0.5-mut/K0.5-wt of 464
